B1: glmS ribozyme (parent)
chain: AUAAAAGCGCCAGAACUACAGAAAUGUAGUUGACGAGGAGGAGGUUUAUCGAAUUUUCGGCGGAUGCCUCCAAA

variants of: B1; assay: self-cleavage kobs at 640 uM GlcN6P; higher = faster cleavage; RNA array; details: with glucosamine-6-phosphate
Fewer inactive variants are shown than the library holds.
Respond with met for self-cleavage kobs at 640 uM GlcN6P values of 0.0001 s⁻¹ and above, not met for values below.

> print(dat)
                             sequence.chain    label
1  AUAAAAGGGCCAGAACUACAGAAAUGUAGUUGACGAGGAGGAGGUUUAUCGAAUCUUCGGCGGAUGCCUCAAAA [C8G U55C C71A]  not met
2  AUAAAAGCGCCAGAACUACAGAAAUGUAGUUGACGAGGAGGAGGUUUAUCGAAUUUUCGGCGGGUGCCACCAAA [A64G U69A]  not met
3  AUAAAAGCGCCAGAACUACAGAAAUGUAGUUGACGAGGAGGCGGUUUAUCGAUUUGUCGGCGGAUGCCUCCAAA [A42C A53U U56G]  not met
4  AUAAAAGCGCCAGAACUACAGAAAUGUAGUUGACGAGGUGGCGGUUUAUCGAAUUUUCGGCGGAUGCCUCCAAA [A39U A42C]  not met

Query: Is self-cleavage kobs at 640 uM GlcN6P at least 0.0001 s⁻¹? Consider AUAAAAGCGCCAGAACUACAGAAAUGUAGUAGACGAGGAGGAGGUUUAUCGAAAUUUCGGCGGAUGCAUCCAAA [U31A U54A C68A]
Response: not met

Query: Is self-cleavage kobs at 640 uM GlcN6P at least 0.0001 s⁻¹? Consider AUAAAAGCGCCAGAACUACAGAAAUGUAGUUGACGAGGAGGAGGUUUAUAUAAUUUUCGGCGGAUGCCUCCAAA [C50A G51U]
Response: not met

Query: Is self-cleavage kobs at 640 uM GlcN6P at least 0.0001 s⁻¹? Consider AUAAAAGCGCCAGAACUACAGAAAUGUAGUUGAGGAGGAGGAGGUUUAUCGAAUUUUCGGCGGAUGCCACCAAA [C34G U69A]
Response: not met

Query: Is self-cleavage kobs at 640 uM GlcN6P at least 0.0001 s⁻¹? Consider AUAAAAGCGCCAGAACUACAGAAAUGUAGUUGACGGGGAGGAGGUUUUUCGAAUUUUCGGCGGAUGCCUCCAAA [A36G A48U]
Response: not met

Query: Is self-cleavage kobs at 640 uM GlcN6P at least 0.0001 s⁻¹? Consider AUAAAAGCGACAGAACUACAGAAAUGUAGUUGACGAGGAGGAGGUUUAUCCUAUUUUCGGCGGAUGCCUUCAAA [C10A G51C A52U C70U]
Response: not met

Query: Is self-cleavage kobs at 640 uM GlcN6P at least 0.0001 s⁻¹? Consider AUAAAAGCGCAAGAACUACAGAAAUGUAGUUGACGAGGAGGAGGUUUAUCGAUUUUGCGGCGGAUGCCUCAAAA [C11A A53U U57G C71A]
Response: met

Query: Is self-cleavage kobs at 640 uM GlcN6P at least 0.0001 s⁻¹? Consider AUAAAAGCGCCAGAACUACAGACAUGUAGUUGACGAGGAGGAGGUUUAUCGAAUUUUCGGCGGAUGCCACCAAA [A23C U69A]
Response: met
